Test system: TA 100
Assay: Ames Test, strain TA 100
Details: TA 100, 100 μM
Excerpt: The test used amino acid-dependent strains of Salmonella typhimurium and Escherichia coli to detect point mutations which involved substitution, addition or deletion of one or a few DNA base pairs. […] The test detected mutations that revert the mutations present in the bacteria, restoring the functional capability to synthesize histidine or tryptophan. The revertant bacteria were detected by the ability to grow in the absence of the amino acid required by the parent test strain. […]
Readout Type: Fold increase (over baseline)
Note: the reply should be a number with no unit written.

Would you please look over these solved cases?
Cc1nc2c(c(N3CCCN(Cc4ccccc4)CC3)n1)CCCC2: 0.97
CC(C)c1nccn1CC(=O)Nc1ccc(-c2ccccc2)cc1: 0.97
O=C(Cn1ccnc1-c1ccccn1)Nc1ccc(-c2ccccc2)cc1: 1.2

Proceed to the following item.
Given the compound O=C(Cn1cnc2c1CCCC2)Nc1ccc(-c2ccccc2)cc1 , what is its reported Fold increase (over baseline)?
0
